Where these numbers come from: ChEMBL document CHEMBL5505992

Answer each item with its documented HC50 at 1 h.
- TEST: Hemolytic activity in sheep erythrocytes incubated for 1 hr by absorbance based analysis
- Assay type: toxicity, cell-based, Ovis aries, Erythrocyte
The response must be a number in µg/mL with no trailing unit.

Please fill in: HC50 at 1 h reported for CCCN(CCC)CCCCCOc1ccc(C2CC(=O)c3c(OC)cc(OCCCCCN(CCC)CCC)c(CC=C(C)C)c3O2)cc1 (stereo not drawn) = 331

Query COc1cc(OCCCN2CCCCC2)c(CC=C(C)C)c2c1C(=O)CC(c1ccc(OCCCN3CCCCC3)cc1)O2 (stereo not drawn) yields HC50 at 1 h of 467

get_value(item= CCCCN(CCCC)CCCCOc1ccc(C2CC(=O)c3c(OC)cc(OCCCCN(CCCC)CCCC)c(CC=C(C)C)c3O2)cc1 (stereo not drawn) , readout=HC50 at 1 h) returns 1200

Reported HC50 at 1 h ( COc1cc(OCCCCN2CCCC(C)C2)c(CC=C(C)C)c2c1C(=O)CC(c1ccc(OCCCCN3CCCC(C)C3)cc1)O2 (stereo not drawn) ) = 120

###

- Test system: Staphylococcus aureus
- TEST: Antibacterial activity against methicillin-resistant Staphylococcus aureus clinical isolate MRSA-13 measured after 16 to 18 hrs by CLSI method
- Type: functional
- TEST CONDITIONS: time 16-18 hrs
MEASUREMENT KIND: MIC (µg/mL)
Give the quantity in µg/mL, number only.

Sample COc1cc(OCCCCCN2CCN(C)CC2)c(CC=C(C)C)c2c1C(=O)CC(c1ccc(OCCCCCN3CCN(C)CC3)cc1)O2 (stereo not drawn) ; MIC observed: 16

Form: molecule = COc1cc(OCCCCN2CCN(C)CC2)c(CC=C(C)C)c2c1C(=O)CC(c1ccc(OCCCCN3CCN(C)CC3)cc1)O2 (stereo not drawn) ; MIC = 32

Recorded MIC (molecule COc1cc(OCCCCN2CCCCC2)c(CC=C(C)C)c2c1C(=O)CC(c1ccc(OCCCCN3CCCCC3)cc1)O2 (stereo not drawn) ): 16

Entry under test: CCCN(CCC)CCCCCOc1ccc(C2CC(=O)c3c(OC)cc(OCCCCCN(CCC)CCC)c(CC=C(C)C)c3O2)cc1 (stereo not drawn) . Its MIC was 8

Reported MIC for COc1cc(OCCCCN2CCCC(C)C2)c(CC=C(C)C)c2c1C(=O)CC(c1ccc(OCCCCN3CCCC(C)C3)cc1)O2 (stereo not drawn) was 8

Recorded MIC (molecule COc1cc(OCCCCCN2CCCCC2C)c(CC=C(C)C)c2c1C(=O)CC(c1ccc(OCCCCCN3CCCCC3C)cc1)O2 (stereo not drawn) ): 16

###

- TEST: Toxicity in Kunming mouse assessed as survival rate at 40 mg/kg, sc measured after 24 hrs relative to control
- Assay type: organism-based
- TEST CONDITIONS: in vivo
MEASUREMENT KIND: survival at 24 h (%)
The reply should be a number in %, with the unit left off.

Form field survival at 24 h, entry CCCC[N+](C)(CCCC)CCCCCOc1ccc(C2CC(=O)c3c(OC)cc(OCCCCC[N+](C)(CCCC)CCCC)c(CC=C(C)C)c3O2)cc1.[I-].[I-] (stereo unspecified) : 80

###

Provide the reported MIC of each item.
- Test system: Staphylococcus aureus
- TEST: Antibacterial activity against Staphylococcus aureus ATCC 29213 measured after 16 to 18 hrs by CLSI method
- Type: functional
- TEST CONDITIONS: time 16-18 hrs

Reported MIC for COc1cc(OCCCCN2CCCCC2C)c(CC=C(C)C)c2c1C(=O)CC(c1ccc(OCCCCN3CCCCC3C)cc1)O2 (stereo unspecified) was 32 µg/mL

// field: MIC; key: COc1cc(OCCCCCN2CCN(C)CC2)c(CC=C(C)C)c2c1C(=O)CC(c1ccc(OCCCCCN3CCN(C)CC3)cc1)O2 (stereo unspecified) ; value = 16 µg/mL

The reported value for COc1cc(OCCCCN2CCC(C)CC2)c(CC=C(C)C)c2c1C(=O)CC(c1ccc(OCCCCN3CCC(C)CC3)cc1)O2 (stereo unspecified) in terms of MIC is 16 µg/mL

For reference, reported MIC for CCCCN(CCCC)CCCCCOc1ccc(C2CC(=O)c3c(OC)cc(OCCCCCN(CCCC)CCCC)c(CC=C(C)C)c3O2)cc1 (stereo unspecified) stands at 4 µg/mL

Given item COc1cc(OCCCN2CCCCC2)c(CC=C(C)C)c2c1C(=O)CC(c1ccc(OCCCN3CCCCC3)cc1)O2 (stereo unspecified) , the value recorded as its MIC is 64 µg/mL

molecule COc1cc(OCCCCN2CCN(C)CC2)c(CC=C(C)C)c2c1C(=O)CC(c1ccc(OCCCCN3CCN(C)CC3)cc1)O2 (stereo unspecified) , MIC observed: 32 µg/mL

Looking up CCCN(CCC)CCCCOc1ccc(C2CC(=O)c3c(OC)cc(OCCCCN(CCC)CCC)c(CC=C(C)C)c3O2)cc1 (stereo unspecified) , I see its MIC listed as 16 µg/mL

Documented MIC of COc1cc(OCCCCN2CCCCC2)c(CC=C(C)C)c2c1C(=O)CC(c1ccc(OCCCCN3CCCCC3)cc1)O2 (stereo unspecified) : 32 µg/mL

Recorded MIC (molecule CCCCN(CCCC)CCCOc1ccc(C2CC(=O)c3c(OC)cc(OCCCN(CCCC)CCCC)c(CC=C(C)C)c3O2)cc1 (stereo unspecified) ): 8 µg/mL

// recorded MIC for COc1cc(OCCCN2CCN(C)CC2)c(CC=C(C)C)c2c1C(=O)CC(c1ccc(OCCCN3CCN(C)CC3)cc1)O2 (stereo unspecified) : 64 µg/mL

Reported MIC ( COc1cc(O)c(CC=C(C)C)c2c1C(=O)CC(c1ccc(O)cc1)O2 (stereo unspecified) ) = > 64 µg/mL

// COc1cc(OCCCN2CCC(C)CC2)c(CC=C(C)C)c2c1C(=O)CC(c1ccc(OCCCN3CCC(C)CC3)cc1)O2 (stereo unspecified) : MIC value = 16 µg/mL

Note to self: MIC recorded for CCCCN(CCCC)CCCCOc1ccc(C2CC(=O)c3c(OC)cc(OCCCCN(CCCC)CCCC)c(CC=C(C)C)c3O2)cc1 (stereo unspecified) was 4 µg/mL

# MIC of COc1cc(OCCCN2CCSCC2)c(CC=C(C)C)c2c1C(=O)CC(c1ccc(OCCCN3CCSCC3)cc1)O2 (stereo unspecified) = > 128 µg/mL

Just so you know, measured MIC for CCCN(CCC)CCCOc1ccc(C2CC(=O)c3c(OC)cc(OCCCN(CCC)CCC)c(CC=C(C)C)c3O2)cc1 (stereo unspecified) came out at 16 µg/mL

Sure, the documented MIC for COc1cc(OCCCCCN2CCSCC2)c(CC=C(C)C)c2c1C(=O)CC(c1ccc(OCCCCCN3CCSCC3)cc1)O2 (stereo unspecified) is 32 µg/mL
